// reported inhibition at 1 µM for each item listed
# measurement target: 17β-HSD3 enzyme (Homo sapiens, UniProt P37058)
# Construct: expressed in transfected cells; host or cells: MCF-7 cell lines stably expressing 17β-HSD3
# Sequence (P37058 1-310): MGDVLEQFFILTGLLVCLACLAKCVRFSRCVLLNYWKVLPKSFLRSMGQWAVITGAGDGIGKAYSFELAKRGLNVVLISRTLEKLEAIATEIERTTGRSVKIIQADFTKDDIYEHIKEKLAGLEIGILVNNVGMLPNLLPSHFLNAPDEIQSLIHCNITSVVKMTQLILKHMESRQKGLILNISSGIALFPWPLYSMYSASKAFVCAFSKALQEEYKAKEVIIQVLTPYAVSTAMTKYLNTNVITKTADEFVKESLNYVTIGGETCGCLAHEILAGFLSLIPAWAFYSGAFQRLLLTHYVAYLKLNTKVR
# protocol notes: Inhibition of 17β-HSD type 3 enzyme in MCF-7 cells stably expressing 17β-HSD3 (HPLC)
# Assay type: cell-based
# experimental setup: MCF7; 1 μM compound; MCF-7 cells expressing 17β-HSD3, 2 nM androstenedione
# output: bare number, implied unit %

Please review the entries below; each comes with its answer.
# compound structure, inhibition at 1 µM (%)
data = [
    ("C[C@]12CC[C@@H]3c4ccc(B(O)O)cc4CC[C@H]3[C@@H]1[C@@H](CCCC(=O)NC1CCCCC1)CC2(F)F", 13),
    ("C[C@]12CC[C@@H]3c4ccc(NCc5ccccc5)cc4CC[C@H]3[C@@H]1[C@@H](CCCC(=O)N1CCOCC1)CC2=O", 15),
    ("C[C@]12CC[C@@H]3c4ccc(B(O)O)cc4CC[C@H]3[C@@H]1[C@@H](CCCC(=O)N1CCCCC1)CC2=O", 15),
]

Name the reported inhibition at 1 µM value associated with the compound Cc1cccc2c(CCNC(=O)CC[C@@H]3CC(F)(F)[C@@]4(C)CC[C@@H]5c6ccc(B(O)O)cc6CC[C@H]5[C@H]34)c[nH]c12 40

Record: C[C@]12CC[C@@H]3c4ccc(B(O)O)cc4CC[C@H]3[C@@H]1[C@@H](CCCC(=O)Nc1ccc3c(c1)OCO3)CC2=O 18

Record: COc1ccc(CCN(C)C(=O)CC[C@@H]2CC(F)(F)[C@@]3(C)CC[C@@H]4c5ccc(B(O)O)cc5CC[C@H]4[C@H]23)cc1OC 45

Record: C[C@]12CC[C@@H]3c4ccc(B(O)O)cc4CC[C@H]3[C@@H]1[C@H](CCC(=O)NCc1ccc3c(c1)OCO3)CC2(F)F 28

Record: C[C@]12CC[C@@H]3c4ccc(Nc5ccc6c(c5)S(=O)(=O)C=C6)cc4CC[C@H]3[C@@H]1[C@@H](CCCC(=O)N1CCOCC1)CC2=O 7

Record: C[C@]12CC[C@@H]3c4ccc(B(O)O)cc4CC[C@H]3[C@@H]1[C@@H](CCCC(=O)NC1CCCCC1)CC2=O 6

###

// reported inhibition at 1 µM for each item listed
# measurement target: recombinant human 17β-HSD1 (Homo sapiens, UniProt P14061)
# Construct: made in house; host or cells: Sf9 insect cells (baculovirus, Bac to Bac Expression System)
# Sequence (P14061 whole entry): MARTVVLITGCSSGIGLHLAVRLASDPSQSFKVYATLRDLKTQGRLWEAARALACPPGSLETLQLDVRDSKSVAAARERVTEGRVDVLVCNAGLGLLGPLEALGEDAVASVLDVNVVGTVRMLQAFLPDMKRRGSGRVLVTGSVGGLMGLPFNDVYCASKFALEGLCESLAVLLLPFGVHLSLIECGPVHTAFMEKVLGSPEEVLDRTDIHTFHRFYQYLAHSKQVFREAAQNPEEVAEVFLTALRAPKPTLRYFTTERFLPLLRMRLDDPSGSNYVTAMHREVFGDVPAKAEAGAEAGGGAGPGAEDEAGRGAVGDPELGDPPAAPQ
# protocol notes: Recombinant 17β-HSD1 assay (HPLC, 3H-estrone conversion)
# Assay type: biochemical
# experimental setup: 0.5 h; 1 μm compound; 30 nM estrone, 1 mM NADPH, 30 min RT; read-out: Inhibition of rec. 17β-HSD1
# output: bare number, implied unit %

Please review the entries below; each comes with its answer.
# compound structure, scale unit, inhibition at 1 µM
data = [
    ("C[C@]12CC[C@@H]3c4ccc(B(O)O)cc4CC[C@H]3[C@@H]1[C@H](CCC(=O)NC1CCCCC1)CC2=O", "%", 91),
    ("C[C@]12CC[C@@H]3c4ccc(B(O)O)cc4CC[C@H]3[C@@H]1[C@@H](CCCC(=O)N1CCOCC1)CC2(F)F", "%", 61),
]

Name the reported inhibition at 1 µM value associated with the molecule C[C@]12CC[C@@H]3c4ccc(B(O)O)cc4CC[C@H]3[C@@H]1[C@H](CCC(=O)Nc1ccc3c(c1)OCO3)CC2=O 66
